molecular target: Rho-associated protein kinase 1 (Homo sapiens) (UniProt Q13464); conditions: at 0.1 µM;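 also: values are mean percent inhibition of ROCK1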
Sequence (Q13464 2-1354 limits assumed): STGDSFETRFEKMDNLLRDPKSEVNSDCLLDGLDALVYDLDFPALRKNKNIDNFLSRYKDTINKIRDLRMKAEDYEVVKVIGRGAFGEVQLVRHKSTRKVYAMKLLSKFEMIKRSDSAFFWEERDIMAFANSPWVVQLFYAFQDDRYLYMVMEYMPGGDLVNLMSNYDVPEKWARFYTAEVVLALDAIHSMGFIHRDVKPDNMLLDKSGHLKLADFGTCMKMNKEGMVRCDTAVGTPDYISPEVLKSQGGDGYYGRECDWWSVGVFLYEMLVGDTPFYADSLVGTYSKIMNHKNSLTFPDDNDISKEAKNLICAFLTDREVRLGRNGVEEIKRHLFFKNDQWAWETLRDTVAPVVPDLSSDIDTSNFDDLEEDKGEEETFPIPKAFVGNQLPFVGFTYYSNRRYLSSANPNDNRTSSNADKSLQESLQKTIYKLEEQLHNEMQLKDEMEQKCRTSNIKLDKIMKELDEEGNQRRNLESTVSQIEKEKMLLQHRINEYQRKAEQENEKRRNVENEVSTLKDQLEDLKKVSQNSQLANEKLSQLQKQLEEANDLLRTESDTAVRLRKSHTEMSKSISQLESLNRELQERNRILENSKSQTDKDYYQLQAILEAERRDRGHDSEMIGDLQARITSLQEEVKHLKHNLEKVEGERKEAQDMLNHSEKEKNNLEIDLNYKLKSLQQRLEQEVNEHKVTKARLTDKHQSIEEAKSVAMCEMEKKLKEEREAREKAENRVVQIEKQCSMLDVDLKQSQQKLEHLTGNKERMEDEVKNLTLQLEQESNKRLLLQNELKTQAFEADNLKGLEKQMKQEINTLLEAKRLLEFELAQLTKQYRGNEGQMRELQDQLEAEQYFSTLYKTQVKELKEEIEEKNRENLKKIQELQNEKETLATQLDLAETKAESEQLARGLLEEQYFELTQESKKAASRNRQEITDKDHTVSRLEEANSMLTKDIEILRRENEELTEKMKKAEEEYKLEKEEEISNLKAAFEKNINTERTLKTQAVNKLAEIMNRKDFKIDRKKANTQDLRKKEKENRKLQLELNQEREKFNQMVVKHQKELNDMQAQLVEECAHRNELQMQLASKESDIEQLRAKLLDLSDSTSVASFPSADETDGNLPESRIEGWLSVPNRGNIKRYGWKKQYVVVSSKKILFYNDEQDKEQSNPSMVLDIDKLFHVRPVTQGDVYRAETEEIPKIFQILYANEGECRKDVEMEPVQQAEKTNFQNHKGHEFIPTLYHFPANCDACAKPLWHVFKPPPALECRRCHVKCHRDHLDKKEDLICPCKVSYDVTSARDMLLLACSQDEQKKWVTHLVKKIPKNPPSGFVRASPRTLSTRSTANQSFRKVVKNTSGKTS
measured-attribute: inhibition

Illustrative cases are given below, each with its answer.
smiles-repr	inhibition
O=C(O[C@H]1CN[C@H](C#Cc2cc3ncnc(Nc4ccc5c(cnn5Cc5ccccc5)c4)c3s2)C1)N1CCOCC1	-2.14%
CCCNc1cccc(-n2ncc3c(N/N=C/c4ccncc4)ncnc32)c1	2.35%
O=C(Nc1n[nH]c2nnc(-c3cccnc3)cc12)C1CC1	-0.21%

Take each entry in turn and give its inhibition.
1. COc1ccc2ncn(-c3cc(O[C@H](C)c4ccccc4C(F)(F)F)c(C(N)=O)s3)c2c1
2. O=C1Nc2ccccc2/C1=C1\CCc2cc(O)ccc21
3. Cc1ccc(-c2cc3c(NC(=O)C4CC4)ncnc3o2)cc1
4. COc1cc2c(cc1Nc1nc(Nc3cccc(F)c3C(N)=O)c3cc[nH]c3n1)N(C(=O)CN1CCN(C(C)C)CC1)CC2
5. OCCCNc1nccc(-c2c(-c3ccc(F)cc3)nn3cc(C(F)(F)F)ccc23)n1

### Response
0.72%
1.2%
1.09%
0.72%
0.15%

Record inhibition for all entries; do not skip any.
1. CCOc1ccc2c(-c3ccnc(Nc4cc(OC)cc(C(F)(F)F)c4)n3)cnn2n1
2. CNC(=O)c1cncc(/C=C/c2ccccc2C)c1

### Response
-0.28%
1.2%

* * *

target: Leucine-rich repeat serine/threonine-protein kinase 2 (Homo sapiens); settings: at 1 µM;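 also: mean percent inhibition of LRRK2 measured in the GSK PKIS kinase inhibitor set screen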
Binary classification by inhibition, with 10% as an inclusive lower bound for t; all other cases are f.

Look over these answered cases.
smiles-repr	label-value
COc1cc(Nc2ncc(-c3ccccc3)o2)cc(OC)c1	f
Cn1c(-c2nonc2N)nc2cnccc21	t
COc1cc(N2CCN(C(C)C)CC2)ccc1Nc1nc(Nc2cccc3ncccc23)c2cc[nH]c2n1	t
COc1ccc2ncn(-c3cc(O[C@H](C)c4ccccc4C(F)(F)F)c(C(N)=O)s3)c2c1	t
NS(=O)(=O)c1ccc(N/N=C2\C(=O)Nc3cccc(CCc4ccncc4)c32)cc1	f

### Prompt For this compound, is measured inhibition 10% or higher? O=C1Nc2ccccc2/C1=C1\CCc2cc(O)ccc21
### Response t

### Prompt Also check CNC(=O)c1sc(-n2cnc3cc(OC)c(OC)cc32)cc1OCc1ccccc1C(F)(F)F
### Response f

### Prompt What do you get for NC(=O)c1ccc2c(-c3ccnc(NCCCO)n3)c(-c3ccc(F)cc3)nn2c1 ?
### Response f

### Prompt Now this one: CCCNc1cccc(-n2ncc3c(N/N=C/c4ccncc4)ncnc32)c1
### Response t

* * *

biological target: Misshapen-like kinase 1 (Homo sapiens); conditions: at 0.1 µM;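 also: mean inhibition value reported, from GSK PKIS kinase profiling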
Field: inhibition. Provide a value for each of the compounds that follow.
Numbers only, in %.

smiles-repr	tested-on	measurement-units	inhibition
NS(=O)(=O)c1cccc(N/C=C2\C(=O)Nc3ccccc32)c1	Misshapen-like kinase 1 (Homo sapiens)	%	18.4
COc1ccc2ncn(-c3cc(O[C@H](C)c4ccccc4C(F)(F)F)c(C(N)=O)s3)c2c1	Misshapen-like kinase 1 (Homo sapiens)	%	1.05
COc1cccc(-n2ncc3c(N/N=C/c4ccc(C(=O)NCCN(C)C)cc4)ncnc32)c1	Misshapen-like kinase 1 (Homo sapiens)	%	23.1

// input: 6 compounds below; output: inhibition for each
1. Cc1nnc(-c2cccc(-c3ccc(C(=O)NCC4CC4)cc3)c2)o1
2. CS(=O)(=O)CCNCc1ccoc1-c1ccc2ncnc(Nc3ccc(OCc4ccccc4)cc3)c2c1
3. COC(=O)Nc1nc2cc(Oc3ccc(NC(=O)Nc4ccccc4)cc3)ccc2[nH]1
4. Cc1ccc(-c2cc3c(NC(=O)C4CC4)ncnc3o2)cc1
5. COc1cccc(Nc2nccc(-c3cnn4ncccc34)n2)c1
6. COc1cc(N2CCN(C(C)C)CC2)ccc1Nc1nc(Nc2cccc3ncccc23)c2cc[nH]c2n1

### Response
1: 7.95; 2: 1.28; 3: 5.15; 4: 6.35; 5: 11.1; 6: 0.56

### Prompt # query: inhibition of entry CC1(C)CC(n2cnc(-c3ccc(F)cc3)c2-c2ccnc(N)n2)CC(C)(C)N1
### Response 1.2

Data origin, for the record: ChEMBL document CHEMBL1961873
